Reported pKi values are given for each entry in this list.
# System Under Test: human CB1 receptor (Homo sapiens)
# Sequence (P21554 whole entry): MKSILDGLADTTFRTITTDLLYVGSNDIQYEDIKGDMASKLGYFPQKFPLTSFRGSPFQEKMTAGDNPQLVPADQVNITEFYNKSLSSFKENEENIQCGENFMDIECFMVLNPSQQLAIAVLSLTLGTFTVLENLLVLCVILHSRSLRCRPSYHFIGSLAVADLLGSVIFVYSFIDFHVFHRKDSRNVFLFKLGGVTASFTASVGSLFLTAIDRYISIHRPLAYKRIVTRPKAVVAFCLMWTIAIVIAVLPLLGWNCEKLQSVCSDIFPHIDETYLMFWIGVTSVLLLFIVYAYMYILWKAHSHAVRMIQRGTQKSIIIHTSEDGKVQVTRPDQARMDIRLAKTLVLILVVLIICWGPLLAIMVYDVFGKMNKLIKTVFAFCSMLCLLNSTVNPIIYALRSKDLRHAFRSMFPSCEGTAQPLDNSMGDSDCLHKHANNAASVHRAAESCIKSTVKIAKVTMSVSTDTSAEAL
# Assay Remarks: Human CB1 receptor binding, [3H] CP-55,940 displacement on HEK cell membranes
# Set-up: expressed in transfected cells; host or cells: HEK cells, doxycycline-induced; membrane preparation
# Assay Setup: CB1 Ki
pKi: −log10 of the molar value.
Assay Readout: pKi

Compound: CC(C)(C)[C@H](NC(=O)c1nn(Cc2ccc(C(F)(F)F)cc2)c2ccccc12)C(=O)NCCS(C)(=O)=O
Reading Qualifier: <
Value Observed: 6.40

Compound: CC(C)(C)[C@H](NC(=O)c1nn(Cc2ccc(C#N)cc2)c2cc(F)ccc12)C(=O)NCC(F)(F)F
Reading Qualifier: =
Value Observed: 8.83

Compound: CC(C)(C)[C@H](NC(=O)c1nn(Cc2ccc(C#N)cc2)c2ccccc12)C(=O)NCCCO
Reading Qualifier: =
Value Observed: 7.33

Compound: CC(C)(C)[C@H](NC(=O)c1nn(Cc2ccc(F)cc2)c2ccccc12)C(=O)N[C@H]1CCCC[C@@H]1O
Reading Qualifier: =
Value Observed: 6.69

Compound: CC(C)(C)[C@H](NC(=O)c1nn(Cc2ccc(F)cc2)c2ccccc12)C(=O)N1CC[C@H]1C(N)=O
Reading Qualifier: =
Value Observed: 8.00

Compound: CC(C)(C)[C@H](NC(=O)c1nn(Cc2ccc(C#N)cc2)c2ccc(Cl)cc12)C(=O)NCC1CC1
Reading Qualifier: <
Value Observed: 6.40

Compound: CC(C)(C)[C@H](NC(=O)c1nn(Cc2ccc(C#N)cc2)c2ccccc12)C(=O)N1C[C@@H](O)[C@@H](O)C1
Reading Qualifier: =
Value Observed: 7.55

Compound: CC(C)(C)[C@H](NC(=O)c1nn(Cc2ccc(C(F)(F)F)cc2)c2ccccc12)C(=O)NC(CO)CO
Reading Qualifier: =
Value Observed: 7.12

Compound: Cc1cc2c(C(=O)N[C@H](C(N)=O)C(C)(C)C)nn(Cc3ccc(F)cc3)c2cc1F
Reading Qualifier: =
Value Observed: 9.35

Compound: CC(C)(C)[C@H](NC(=O)c1nn(Cc2ccc(C#N)cc2)c2cc(F)ccc12)C(=O)N[C@@H]1CNC(=O)C1
Reading Qualifier: =
Value Observed: 6.92

Compound: Cc1cc2c(C(=O)N[C@H](C(=O)NCCO)C(C)(C)C)nn(Cc3ccc(F)cc3)c2cc1F
Reading Qualifier: =
Value Observed: 9.17

Compound: CC(C)(C)C(NC(=O)c1nn(Cc2ccc(C#N)cc2F)c2ccccc12)C(N)=O (stereo not drawn)
Reading Qualifier: =
Value Observed: 8.56

Compound: CC(C)(C)C(NC(=O)c1nn(Cc2ccc(F)cc2)c2c(F)cccc12)C(N)=O (stereo not drawn)
Reading Qualifier: =
Value Observed: 9.72

Compound: CC(C)(C)[C@H](NC(=O)c1nn(Cc2ccc(F)cc2)c2ccccc12)C(=O)N[C@@H](CO)C(=O)O
Reading Qualifier: =
Value Observed: 6.82

Compound: CC(C)(C)[C@H](NC(=O)c1nn(Cc2ccc(F)cc2)c2ccc(Cl)cc12)C(=O)NC[C@H](O)CO
Reading Qualifier: =
Value Observed: 7.87

Compound: CC(C)(C)[C@H](NC(=O)c1nn(Cc2ccc(F)cc2)c2ccccc12)C(=O)N[C@H](CO)C(N)=O
Reading Qualifier: =
Value Observed: 8.18

Compound: CC(C)(C)[C@H](NC(=O)c1nn(Cc2ccc(C#N)cc2F)c2c(F)c(F)ccc12)C(N)=O
Reading Qualifier: =
Value Observed: 8.31

Compound: CC(C)(C)[C@H](NC(=O)c1nn(Cc2ccc(C#N)cc2F)c2c(F)c(F)ccc12)C(=O)NCCS(N)(=O)=O
Reading Qualifier: =
Value Observed: 7.24
